# Test system: IPOMOEA SPP.
# Protocol details: Postemergence herbicidal evaluation, IPOSS (Morningglory spp.);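 also: higher means more injury with 8 approaching complete kill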
# Assay type: in vivo
# Experimental context: Rate 0.016 kg/ha
Readout name: IPOSS

The reported value for `COC(=O)Cn1c(=O)n(C)c(=O)n(-c2cc(Oc3ccc(C(F)(F)F)cc3Cl)ccc2Cl)c1=O` in terms of IPOSS is 5.5

For this molecule ( `COC(=O)Cn1c(=O)n(C)c(=O)n(-c2cc(Oc3c(F)cc(C(F)(F)F)cc3Cl)ccc2[N+](=O)[O-])c1=O` ), measured IPOSS is 7.0

Documented IPOSS of Cn1c(=O)[nH]c(=O)n(-c2cc(Oc3c(F)cc(C(F)(F)F)cc3Cl)ccc2[N+](=O)[O-])c1=O [D, reference compound] : 7.3

IPOSS reading for Cn1c(=O)[nH]c(=O)n(-c2cc(Oc3ccc(C(F)(F)F)cc3Cl)ccc2Cl)c1=O [F, reference compound] : 3.0

----------
# System: ORYZA SATIVA, L. TEBONNET
# Protocol details: Preemergence herbicidal evaluation, ORYSAT (Rice, Tebonnet)
# Type: in vivo
# Experimental context: Rate 0.500 kg/ha, rated four to five weeks after treatment
Readout name: ORYSAT herbicidal rating

Recorded ORYSAT herbicidal rating (compound `COC(=O)Cn1c(=O)[nH]c(=O)n(-c2cc(Oc3ccc(Cl)cc3Cl)ccc2[N+](=O)[O-])c1=O` ): 1.0

For `COC(=O)Cn1c(=O)n(C)c(=O)n(-c2cc(Oc3ccccn3)ccc2[N+](=O)[O-])c1=O` the compound record lists ORYSAT herbicidal rating as 3.0

For reference, reported ORYSAT herbicidal rating for `COC(=O)Cn1c(=O)n(C)c(=O)n(-c2cc(Oc3cc(Cl)c(Cl)cc3Cl)ccc2[N+](=O)[O-])c1=O` stands at 3.0

Input COC(=O)Cn1c(=O)n(C)c(=O)n(-c2cc(Oc3ccc([S+](C)[O-])cc3Cl)ccc2[N+](=O)[O-])c1=O (centres unmarked) . Output ORYSAT herbicidal rating: 0.0

Entry `COC(=O)Cn1c(=O)n(C)c(=O)n(-c2cc(Oc3ccc(C#N)cc3)ccc2[N+](=O)[O-])c1=O` — recorded ORYSAT herbicidal rating = 2.0

Lab note: `COC(=O)Cn1c(=O)n(C)c(=O)n(-c2cc(Oc3ccc(SC)cc3Cl)ccc2[N+](=O)[O-])c1=O` gave ORYSAT herbicidal rating of 0.0

Short answer for `CC(C)OC(=O)Cn1c(=O)n(C)c(=O)n(-c2cc(Oc3ncc(C(F)(F)F)cc3Cl)ccc2Br)c1=O` : ORYSAT herbicidal rating was 0.0

In plain terms, `COC(=O)Cn1c(=O)n(C)c(=O)n(-c2cc(Oc3cc(Cl)cc(Cl)c3)ccc2[N+](=O)[O-])c1=O` has a documented ORYSAT herbicidal rating of 0.0

----------
Exercise: for every item that follows, state its recorded CASOB.
# Test system: CASSIA OBTUSIFOLIA, L.
# Protocol details: Postemergence herbicidal evaluation, CASOB (Sicklepod);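 also: higher means more injury with 8 approaching complete kill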
# Type: in vivo
# Parameters: key: 0-9 visual rating scale vs untreated control
# Experimental context: Rate 0.063 kg/ha
Just the number, please, no unit attached.

CASOB reading for Cn1c(=O)[nH]c(=O)n(-c2cc(Oc3ccc(C(F)(F)F)cc3Cl)ccc2Cl)c1=O [F, reference compound] : 5.0

Lab note: COC(=O)Cn1c(=O)n(C)c(=O)n(-c2cc(Oc3c(F)cc(C(F)(F)F)cc3Cl)ccc2[N+](=O)[O-])c1=O [Compound 16] gave CASOB of 8.3

Recorded CASOB (compound Cn1c(=O)[nH]c(=O)n(-c2cccc(Oc3ccc(C(F)(F)F)cc3Cl)c2)c1=O [E, reference compound] ): 2.0

For COC(=O)Cn1c(=O)n(C)c(=O)n(-c2cc(Oc3ccc(C(F)(F)F)cc3Cl)ccc2Cl)c1=O [Compound 39] the compound record lists CASOB as 9.0

Recorded result, Cn1c(=O)[nH]c(=O)n(-c2cc(Oc3c(F)cc(C(F)(F)F)cc3Cl)ccc2[N+](=O)[O-])c1=O [D, reference compound] , CASOB: 6.0
